Numbers sourced from paper PMC6217710.

assay: Plasma pharmacokinetics after single oral dose; type: in vivo; conditions: human, 150 mg, mean Cmax, pregabalin 150 mg single oral dose
measurement-label: Cmax (µg/mL)
Give the value, in units of µg/mL, as a plain number.

Data point: CC(C)C[C@H](CN)CC(=O)O [Pregabalin, pregabalin] ; Cmax = 3.48
